The following binders are listed with their measured Kd values.
target_under_test: T1, carrier-free soluble human IL-6R (R&D) (human, UniProt P08887 20-365)
T1 construct: extracellular domain; also called shuIL-6R; shuIL6-R
T1 sequence (looked up): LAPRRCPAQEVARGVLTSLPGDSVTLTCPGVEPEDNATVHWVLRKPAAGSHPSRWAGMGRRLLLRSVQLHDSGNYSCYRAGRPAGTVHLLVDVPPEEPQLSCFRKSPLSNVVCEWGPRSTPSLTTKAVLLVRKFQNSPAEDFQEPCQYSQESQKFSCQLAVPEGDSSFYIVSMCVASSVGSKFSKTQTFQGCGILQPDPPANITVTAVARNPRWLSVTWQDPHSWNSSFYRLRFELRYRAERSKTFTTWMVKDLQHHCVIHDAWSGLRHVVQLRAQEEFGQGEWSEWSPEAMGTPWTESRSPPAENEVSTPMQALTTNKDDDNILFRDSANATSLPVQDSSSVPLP
assay_overview: SPR (Biacore 2000), mAb captured on anti-human IgG Fc, analyte in solution, 25 C, 1:1 Langmuir
Experimental: A CM5 Biacore chip was used and 1640 RU (response units) of an anti-human IgG Fc (Biacore AB, Uppsala, Sweden) was immobilized by EDC/NHS chemistry. […] Binding was measured by passing analytes carrier-free soluble human IL-6R (shuIL6-R; R&D), soluble human IL-6Rc (shuIL-6Rc) and soluble cynomolgus monkey IL-6R (scyIL-6R) in duplicates at the following concentrations: 100 nM, 50 nM, 25 nM, 12.5 nM, 6.25 nM and 0nM. […]
Give the value, in units of nM, as a plain number.

Ask: Return Kd (reported value) for this binder: NI-1201-B antibody (antibody, V domains shown) VH: QVQLVQSGAEVKKPGSSVKVSCKASGGTFSSYAISWVRQAPGQGLEWMGGIIPLFDTTKYAQKFQGRVTITADESTSTAYMELSSLRSEDTAVYYCARDRDILTDYYPLGGMDVWGQGTTVTVSS VL: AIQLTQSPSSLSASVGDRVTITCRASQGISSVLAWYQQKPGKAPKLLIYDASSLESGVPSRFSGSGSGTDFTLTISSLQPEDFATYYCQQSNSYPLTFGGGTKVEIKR
Reply: 0.107

Ask: Return Kd (reported value) for this binder: NI-1201-D antibody (antibody, V domains shown) VH: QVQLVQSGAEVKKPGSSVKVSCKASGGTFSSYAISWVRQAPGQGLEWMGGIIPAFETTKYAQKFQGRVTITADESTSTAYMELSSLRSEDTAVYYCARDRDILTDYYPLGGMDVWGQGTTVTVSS VL: AIQLTQSPSSLSASVGDRVTITCRASQGISSVLAWYQQKPGKAPKLLIYDASSLESGVPSRFSGSGSGTDFTLTISSLQPEDFATYYCQQSQSYPLTFGGGTKVEIKR
Reply: 0.134
